Assay text: physchem
Stated conditions: octan-1-ol/water, pH 7.4, LogD7.4
For each of the compounds below, state its logD.

logD for O=C1CCOc2nc(CCc3ccccc3)ccc21 is 2.5

logD for CNC(=O)c1cc(-c2ccccc2)sc1NC(N)=O is 3.19

logD for Nc1nc2nc(-c3cccs3)cc(C(F)(F)F)n2n1 is 2.01

logD for COc1cc2ncnc(Nc3cc(NC(=O)c4ccnc(N5CCOCC5)c4)ccc3C)c2cc1OCCN1CCCC1 is 2.7

logD for CC(C)N1CCN(C(=O)NCc2ccc(Cl)c(Cl)c2)CC1 is 2.75

logD for CC#Cc1ccnc(-c2cccc([C@@]3(c4cc(C)c(=O)n(CC)c4)N=C(N)c4c(F)cccc43)c2)c1 is 4.4

logD for CC(C)(CO)Nc1nc(SCc2cccc(F)c2F)nc2nc(N)sc12 is 3.37

logD for COc1ccc(NC(=O)c2ccc(-c3ccncc3)c(C)c2)cc1N1CCN(C)CC1 is 2.56

logD for O=C1CCCCCN1 is -0.08

logD for COc1cc(N2CCN(C(C)=O)CC2)ccc1Nc1ncc(C)c(-c2cnc3ccccn23)n1 is 2.9

logD for C1CCC(C(CC2CCCCN2)C2CCCCC2)CC1 (stereo unspecified) is 3.02
